# TARGET_OF_ASSAY: Muscarinic acetylcholine receptor M2 (Homo sapiens) (UniProt P08172)
# Sequence (P08172 whole entry): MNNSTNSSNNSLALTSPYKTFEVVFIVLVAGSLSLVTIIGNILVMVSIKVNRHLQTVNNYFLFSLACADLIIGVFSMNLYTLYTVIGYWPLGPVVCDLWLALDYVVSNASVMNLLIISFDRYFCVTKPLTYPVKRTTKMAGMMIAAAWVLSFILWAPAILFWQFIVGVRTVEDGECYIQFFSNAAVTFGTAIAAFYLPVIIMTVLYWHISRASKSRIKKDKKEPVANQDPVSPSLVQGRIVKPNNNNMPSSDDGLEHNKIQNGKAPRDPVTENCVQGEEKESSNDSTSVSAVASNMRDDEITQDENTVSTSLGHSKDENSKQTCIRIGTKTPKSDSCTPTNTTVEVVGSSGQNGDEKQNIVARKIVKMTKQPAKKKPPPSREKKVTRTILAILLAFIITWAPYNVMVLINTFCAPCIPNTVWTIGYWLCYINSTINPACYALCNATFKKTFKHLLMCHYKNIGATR
# TEST_SUMMARY: Logarithm of affinity (log 1/M) at the muscarinic acetylcholine receptor M2 by using semiquantitative equilibrium and off-rate assay
Recorded measurements of Log 1/M, one per entry
A bare number is all that is needed in reply.

// known answers, use as guide
COc1ccc2c(c1)c1c3c(cc4c1n2C(=O)CC4)CCNC3: 5.87
O=C1CCc2cc3c(c4c5cc(Cl)ccc5n1c24)CCNC3: 5.93
COc1ccc2c3c4c(cc5c3n(c2c1)C(=O)CC5)CNCC4: 5.9
O=C1CCc2cc3c(c4c5c(O)cccc5n1c24)CCNC3: 5.99

Okay, now this compound:
Input Cc1ccc2c(c1)c1c3c(cc4c1n2C(=O)CC4)CNCC3 . Output Log 1/M: 6.09
